Values compiled from ChEMBL document CHEMBL1799956.

# Species: Bos taurus
# protocol_summary: Displacement of [3H]colchicine from bovine brain tubulin at 5 uM
Label scheme for inhibition: lower than 90% is Criterion not met, 90% and above is Criterion met.

API: above_or_equal(metric=inhibition, cutoff=90%) for item CCOc1ccc(-c2sc(N)nc2-c2cc(OC)c(OC)c(OC)c2)cc1
Criterion met

API: above_or_equal(metric=inhibition, cutoff=90%) for item COc1cc(-c2nc(N)sc2-c2ccc(C(F)(F)F)cc2)cc(OC)c1OC
Criterion not met

API: above_or_equal(metric=inhibition, cutoff=90%) for item CCc1ccc(-c2sc(N)nc2-c2cc(OC)c(OC)c(OC)c2)cc1
Criterion not met

API: above_or_equal(metric=inhibition, cutoff=90%) for item CCOc1ccc(-c2sc(N)nc2-c2cc(OC)c(OC)c(OC)c2)cc1Cl
Criterion not met

API: above_or_equal(metric=inhibition, cutoff=90%) for item COc1cc(-c2nc(N)sc2-c2ccc3ccccc3c2)cc(OC)c1OC
Criterion met

API: above_or_equal(metric=inhibition, cutoff=90%) for item COc1cc(-c2nc(N)sc2-c2cc3ccccc3s2)cc(OC)c1OC
Criterion not met

API: above_or_equal(metric=inhibition, cutoff=90%) for item COc1ccc(-c2sc(N)nc2-c2cc(OC)c(OC)c(OC)c2)cc1
Criterion not met

API: above_or_equal(metric=inhibition, cutoff=90%) for item COc1ccc(-c2sc(N)nc2-c2cc(OC)c(OC)c(OC)c2)cc1Cl
Criterion not met

API: above_or_equal(metric=inhibition, cutoff=90%) for item COc1ccc(-c2sc(N)nc2-c2cc(OC)c(OC)c(OC)c2)cc1C
Criterion not met

API: above_or_equal(metric=inhibition, cutoff=90%) for item COc1ccc(-c2sc(N)nc2-c2cc(OC)c(OC)c(OC)c2)cc1F
Criterion not met
